Tested on: HCT116 cells
test_method_notes: In vitro cytotoxicity measured by the cell colony formation assay
Type: cell-based
condition_label: HCT116 cells, colony formation, 72 h incubation with drug, colonies counted after 7 days; ID50 = drug concentration producing 50% inhibition of colony formation; read-out: IN VITRO ID 50 (nm) HCT116
measured_attribute: IC50

Below, 3 compounds whose answers are already recorded.
>>> reported_result("CCNC(=O)O[C@H]1C(=O)[C@@]2(C)C([C@H](OC(=O)c3ccccc3)[C@]3(O)C[C@H](OC(=O)[C@H](O)[C@@H](NC(=O)OC(C)(C)C)c4ccccc4)C(C)=C1C3(C)C)[C@]1(OC(C)=O)CO[C@@H]1C[C@@H]2O (stereo partly shown)")
"< 1 nM"
>>> reported_result("CCNC(=O)O[C@H]1C(=O)[C@@]2(C)C([C@H](OC(=O)c3ccccc3)[C@]3(O)C[C@H](OC(=O)[C@H](O)[C@@H](NC(=O)OC(C)(C)C)c4cccnc4)C(C)=C1C3(C)C)[C@]1(OC(C)=O)CO[C@@H]1C[C@@H]2O (stereo partly shown)")
"27 nM"
>>> reported_result("C/C=C/C(=O)N[C@@H](c1ccco1)[C@@H](O)C(=O)O[C@H]1C[C@@]2(O)[C@@H](OC(=O)c3ccccc3)C3[C@](C)(C(=O)[C@H](OC(=O)Nc4ccc(F)c(F)c4)C(=C1C)C2(C)C)[C@@H](O)C[C@H]1OC[C@@]31OC(C)=O (stereo partly shown)")
"< 10 nM"

I looked up CCNC(=O)O[C@H]1C(=O)[C@@]2(C)C([C@H](OC(=O)c3ccccc3)[C@]3(O)C[C@H](OC(=O)[C@H](O)[C@@H](NC(=O)OC(C)(C)C)C4CCC4)C(C)=C1C3(C)C)[C@]1(OC(C)=O)CO[C@@H]1C[C@@H]2O (stereo partly shown) and its IC50 for HCT116 cells was < 10 nM
